Documented EC50 across a set of compounds
- measurement_target: human GPR119 (hGPR119) (Homo sapiens, UniProt Q8TDV5)
- Construct: expressed in transfected cells
- Sequence (Q8TDV5 whole entry): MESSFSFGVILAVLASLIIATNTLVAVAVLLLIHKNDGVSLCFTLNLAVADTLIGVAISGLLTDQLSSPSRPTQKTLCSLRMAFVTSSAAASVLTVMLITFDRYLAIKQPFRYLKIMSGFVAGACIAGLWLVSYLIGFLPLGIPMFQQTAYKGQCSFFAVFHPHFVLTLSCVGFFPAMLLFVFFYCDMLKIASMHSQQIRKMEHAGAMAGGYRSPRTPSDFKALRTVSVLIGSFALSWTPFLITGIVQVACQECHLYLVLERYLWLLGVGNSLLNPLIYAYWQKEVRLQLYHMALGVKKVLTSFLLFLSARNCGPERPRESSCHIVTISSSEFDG
- assay_explanation: cAMP accumulation assay (cAMP Gs dynamic HTRF kit)
- Assay type: cell-based
- condition_details: CHO-K1 cells stably expressing hGPR119; cAMP accumulation; 4-parameter fit
property_label: EC50

> print(dat)
                                   compound        measured
1  O=C(Cc1c(F)cc(OCCCC2CCN(c3ncc(Cl)cn3)CC2)cc1F)NC(CO)(CO)CO [Example 6]  100 to 1000 nM
2  CC(C)OC(=O)N1CCC2(CC1)CC(CCCOc1ccc(CC(=O)N3CC(CNC[C@H](O)[C@@H](O)[C@H](O)[C@H](O)CO)C3)c(F)c1)C2 [Example 117]  100 to 1000 nM
3  O=C(Cc1c(F)cc(OCCCC2CCN(c3ncc(Cl)cn3)CC2)cc1F)N1CC(CNC[C@H](O)[C@@H](O)[C@H](O)[C@H](O)CO)C1 [Example 53]        ≤ 100 nM
4  CCOc1cnc(N2CCC(CCCOc3ccc(CC(=O)N4CC[C@@H](CNCC(CO)(CO)CO)C4)c(F)c3)CC2)nc1 [Example 154]        ≤ 100 nM
5  O=C(NC(CO)CO)C1CN(C(=O)Cc2ccc(OCCCC3CCN(c4ncc(Cl)cn4)CC3)cc2F)C1 [Example 28]  100 to 1000 nM
6  COCc1cnc(N2CCC([C@H]3C[C@H]3CCOc3ccc(CC(=O)N4CC[C@@H](CNCC(O)(CO)CO)C4)c(F)c3)CC2)nc1 [Example 162]        ≤ 100 nM
7  O=C(CC1(O)CN(C(=O)Cc2ccc(OCCCC3CCN(c4ncc(Cl)cn4)CC3)cc2F)C1)NCC(CO)(CO)CO [Example 184]        ≤ 100 nM

---

# key: entry, value: pEC50
- measurement_target: human GPR119 (hGPR119) (Homo sapiens, UniProt Q8TDV5)
- Construct: expressed in transfected cells
- assay_explanation: cAMP accumulation assay (cAMP Gs dynamic HTRF kit)
- Assay type: cell-based
- condition_details: CHO-K1 cells stably expressing hGPR119; cAMP accumulation; 4-parameter fit
pEC50: −log10 of the molar value.
property_label: pEC50

> print(dat)
                                   molecule  property.label      measured
1  O=C(Cc1c(F)cc(OCCCC2CCN(c3ncc(Cl)cn3)CC2)cc1F)N1CC[C@@H](CNC[C@H](O)[C@@H](O)[C@H](O)[C@H](O)CO)C1 [Example 132]           pEC50        ≥ 7.00
2  O=C(NCCCCCCS(=O)(=O)O)C1CN(C(=O)Cc2ccc(OCCCC3CCN(c4ncc(Cl)cn4)CC3)cc2F)C1 [Example 175]           pEC50  6.00 to 7.00
3  CCOc1cnc(N2CCC(CCCOc3cc(F)c(CC(=O)N4CC[C@H](C(=O)NC[C@H](O)[C@@H](O)[C@H](O)[C@H](O)CO)C4)c(F)c3)CC2)nc1 [Example 130]           pEC50        ≥ 7.00
4  O=C(NC[C@H](O)[C@@H](O)[C@H](O)[C@H](O)CO)[C@H]1CCN(C(=O)Cc2ccc(OCCCC3CCN(c4ncc(Cl)cn4)CC3)cc2F)C1 [Example 127]           pEC50        ≥ 7.00
5  O=C(Cc1ccc(OCCCC2CCN(c3ncc(Cl)cn3)CC2)cc1F)N1CC(CCNCC(O)(CO)CO)C1 [Example 58]           pEC50  6.00 to 7.00
6  COCc1cnc(N2CCC(CCCOc3cc(F)c(CC(=O)N4CC[C@@H](CNCC(CO)(CO)CO)C4)c(F)c3)CC2)nc1 [Example 160]           pEC50        ≥ 7.00
7  O=C(Cc1ccc(OCCCC2CCN(c3ncc(Cl)cn3)CC2)cc1F)N1CC[C@H](CNC[C@H](O)[C@@H](O)[C@H](O)[C@H](O)CO)C1 [Example 100]           pEC50        ≥ 7.00
